SYSTEM: Adrenergic receptor alpha-2 (Homo sapiens) (UniProt P08913+P18825+P18089)
ASSAY PROTOCOL: Agonist activity at adrenergic alpha 2 receptor in human brain membrane assessed as stimulation of [35S]GTPgammaS binding at 10 uM in presence of adrenergic alpha 2 receptor antagonist RX821002 by liquid scintillation spectroscopy
Format: functional, cell membranes
ASSAY CONTEXT: filed as agonist
Could you please report measured Emax for the items listed next?
Number only, in %; omit the unit.

Emax lookup needed for Cl.Cl.N=C(NCc1ccco1)Nc1ccc(Cc2ccc(NC3=NCCN3)cc2)cc1 , thanks. 130

Can you handle Cl.Cl.N=C(NCc1ccco1)Nc1ccc(Cc2ccc(NC3=NCCN3)cc2)cn1 next? 154

Can you handle CCCNC(=N)Nc1ccc(Cc2ccc(NC3=NCCN3)cc2)cc1.Cl.Cl next? 110

Can you handle Cl.Cl.N=C(N)Nc1ccc(Cc2ccc(N=C3NCCN3)cc2)cc1 next? 122

====

Could you please report measured Emax for the items listed next?
SYSTEM: Adrenergic receptor alpha-2 (Homo sapiens) (UniProt P08913+P18825+P18089)
ASSAY PROTOCOL: Antagonist activity at adrenergic alpha 2 receptor in human brain membrane assessed as inhibition of UK14304-induced stimulation of [35S]GTPgammaS binding at 10 uM by liquid scintillation spectroscopy (reference value: 153 +/- 4%)
Format: functional, cell membranes
ASSAY CONTEXT: filed as antagonist
The reply must contain the numeric value and, after it, the unit.

Emax lookup needed for CCCNC(=N)Nc1ccc(Cc2ccc(NC3=NCCN3)cc2)cn1.Cl.Cl , thanks. 122%

Can you handle CCCNC(=N)Nc1ccc(Cc2ccc(NC3=NCCN3)nc2)cc1.Cl.Cl next? 139%

Can you handle Cl.Cl.N=C(N)Nc1ccc(Cc2ccc(NC3=NCCN3)cc2)cn1 next? 140%

Can you handle CCCNC(=N)Nc1ccc(Cc2ccc(NC3=NCCN3)cc2)cc1.Cl.Cl next? 171%

Can you handle Cl.Cl.N=C(NCc1ccco1)Nc1ccc(Cc2ccc(NC3=NCCN3)cc2)cn1 next? 96%

====

Could you please report measured EC50 for the items listed next?
SYSTEM: Adrenergic receptor alpha-2 (Homo sapiens, UniProt P08913+P18825+P18089)
ASSAY PROTOCOL: Agonist activity at adrenergic alpha 2 receptor in human brain membrane assessed as stimulation of [35S]GTPgammaS binding by liquid scintillation spectroscopy
Format: functional, cell membranes
Number only, in µM; omit the unit.

EC50 lookup needed for CCCNC(=N)Nc1ccc(Cc2ccc(NC3=NCCN3)cc2)cc1.Cl.Cl , thanks. 46

Can you handle Cl.Cl.N=C(N)Nc1ccc(Cc2ccc(N=C3NCCN3)cc2)cc1 next? 18

Can you handle Cl.Cl.N=C(NCc1ccco1)Nc1ccc(Cc2ccc(NC3=NCCN3)cc2)cc1 next? 534

Can you handle Cl.Cl.N=C(NCc1ccco1)Nc1ccc(Cc2ccc(NC3=NCCN3)cc2)cn1 next? 194

These entries and their values trace back to ChEMBL document CHEMBL4732085.
